assay: PET hydrolysis, aromatic products released after 48 h (umol product/mg enzyme); higher = more PET depolymerization activity; conditions: substrate: cryPow; 40 °C; pH 7.5
Please go through the items and note down their PET hydrolysis.
Numbers only.

DEIGQAPTASNITGNGSFATTSESISSLVSGFGGGRVYYPTATGRYPVIAISPGFTATWSSLAWIGPRLSSWGFVVVGIETNSIYDQPGSRGNQLLAALNWAVNSSSTAVRSRVDGSRRGVAGHSMGGGGTLEALAADTSGLVKAGVPLAPWNTDKIWSNVSEPVLIVGGQADTIAPVATHSVPFYNTLAGPKTYVELTGASHFFPQTTNATTSRALVSWFKRWLNQDSRFTPYTCGFGGLAVSDFRSNAC [ESM147]
46

Please look at the following sequence next.
Look up and report measured PET hydrolysis for this entry: ADNPYQRGPDPTQSSVSASRGTFATAQVGVPAGNGFGGGVIYHPTDTSQGTFGAVAIVPGYTATWAAEGAWMGHWLASFGFVVIGIDTNNRNDWDTARGTQLLAALDYLTQRSSVRDRVDPSRTAVMGHSMGGGGAMYAALQRPSLKTAVGLAPFSPSQNLTTTRVPTMLLSGQNDTTTTPASIVNLYNGIPSSVEKAYLELTGAGHGFPTSNNSTMMRNVIPWLKIFVDSDTRYTQFLCPLSDSNGIRTYQNTCPLVPSPVPTTTSTTSSTSTTTTSTTTTTTTSVPVGACSATYRTTNAWSGGYQGEVTVAAGDSAVNGWTVRWTLDSGQTISQVWNGTLSATGSAVSVRNASYNGSLRPGTSTTFGFIAGGAPSTPVLSCTSP [DP072]
24
